- System: UO-31 renal
- Protocol Summary: NCI-60 one-dose screen, 48 h (100 = growth as untreated, 0 = no growth, -100 = all killed)
- Details: 10 µM unless noted
Compounds without any hit were thinned out: in the full panel of roughly 83,000, 20% have a hit. Activity calls are given as the source filed them. The calls were made as follows: active = growth percent below 10; inactive = the rest.
Exercise: for every item that follows, state its recorded growth.

The cases that follow already have their growth on record.
{"Structure": "COC(=O)c1ccc(NC(=O)Nc2ccc(C(=O)OC)cc2)cc1", "growth": "96.9% (inactive)"}
{"Structure": "COc1cc(C2C(C(=O)OCc3ccccc3)=C(C)NC(C)=C2C(=O)OCc2ccccc2)cc(OC)c1OC", "growth": "18.5% (inactive)"}
{"Structure": "COc1ccc(-c2nc(-c3cn(C)c4ncccc34)cs2)cc1", "growth": "14.4% [100 µM] (inactive)"}
{"Structure": "CCCCNC(=O)c1cc([N+](=O)[O-])cc(C2CCCCC2)c1O", "growth": "24.8% (inactive)"}
{"Structure": "NC(=O)c1c(NC(=O)c2cccc(C(F)(F)F)c2)sc2c1CCC(=O)C2", "growth": "-95.9% (active)"}

Below is a list of molecules. For each, state its recorded growth.
1. [2H]C([2H])([2H])Oc1ccc(F)cc1/C=C/C(=O)/C=C(/C=C/c1cc(F)ccc1OC([2H])([2H])[2H])OB(F)F
2. Nn1c(=O)c(=O)[nH]c2c(cnn2-c2ccccc2)c1=O
3. CCOC(=O)c1c(C)nc2c(c1N)/C(=C/c1ccc(OC)cc1)C(=O)N2Cc1ccccc1
4. COc1cc2c(cc1OCCCCN1CCN(C(=S)SCCC(C#N)(c3ccccc3)c3ccccc3)CC1)N=C[C@@H]1CCCN1C2=O

OUTPUT:
53.9% (inactive)
82.2% (inactive)
56.6% (inactive)
10.8% (inactive)

====

- Test system: OVCAR-4 ovarian
- Protocol Summary: NCI-60 one-dose screen, 48 h
- Details: 10 µM unless noted
This is part of a sample that, as a whole, favours compounds with a hit. Of some 83,000 tested, about 20% had one in any assay. The source made the active and inactive calls. The calls were made as follows: active = growth percent below 10; inactive = the rest.
Would you mind answering with one of these outcomes? Yes for active, No for inactive

INPUT: What did the test return for C#CCNC(=O)[C@]1(C)CCC[C@@]2(C)[C@H]1CC=C1C=C(C(C)C)CC[C@@H]12 ?
OUTPUT: No

INPUT: What did the test return for O=C(Cn1nnc2ccccc21)N/N=C/c1c[nH]c2ccccc12 ?
OUTPUT: No

INPUT: What did the test return for O=c1c2c3c(sc2n2c(-c4cc(-c5ccccc5)no4)nnc2n1Cc1ccccc1)CCCC3 ?
OUTPUT: No

INPUT: What did the test return for Cc1ccc(C)c2c(C)c(C(=O)Nc3cccc(-n4cccn4)c3)oc12 ?
OUTPUT: No

INPUT: What did the test return for O=C(CSc1nnc(-c2cc(-c3ccccc3)nc3ccccc23)n1-c1ccccc1)Nc1ccc(C(=O)/C=C/c2ccc(Cl)cc2)cc1 ?
OUTPUT: No

INPUT: What did the test return for Oc1ccc(/C=C/c2ccc(O)cc2)cc1 ?
OUTPUT: No

INPUT: What did the test return for Cn1ccc(=O)nc1 ?
OUTPUT: No

INPUT: What did the test return for CN1CCN(c2ccc(NC(=O)c3cncnc3Nc3ccc(OCc4cccc(F)c4)c(Cl)c3)cc2)CC1 ?
OUTPUT: No

INPUT: What did the test return for C=C1C(=O)O[C@H]2[C@H]1CC/C(COC(=O)/C=C\C(=O)NCc1ccc(Cn3c(=O)sn(CCCl)c3=O)cc1)=C\CC[C@@]1(C)O[C@@H]21 ?
OUTPUT: No

INPUT: What did the test return for COc1ccc(N2CCN(C(=O)c3sc4nc(C)c(Br)c(C)c4c3N)CC2)cc1 ?
OUTPUT: No

INPUT: What did the test return for CN(Cc1cc(Br)cc(Br)c1O)Cc1cc(Br)cc(Br)c1O ?
OUTPUT: No

INPUT: What did the test return for Cc1ccc(-c2nc(-c3cn(C)c4ncccc34)cs2)cc1 ?
OUTPUT: Yes

INPUT: What did the test return for CCOC(=O)c1cc(C(=O)c2cc(OC)c(OC)c(OC)c2)n2ccccc12 ?
OUTPUT: No

INPUT: What did the test return for N#C/C(=C\C=C\c1ccc(-c2cc(Cl)ccc2Cl)o1)c1nc2ccccc2s1 ?
OUTPUT: No

====

- Test system: OVCAR-8 ovarian
- Protocol Summary: NCI-60 one-dose screen, 48 h (100 = growth as untreated, 0 = no growth, -100 = all killed)
- Details: 10 µM unless noted
The panel holds about 83,000 compounds, 20% with a hit somewhere; the sample as a whole holds those more often.
Lab note - cut at 90% for growth: Yes if strictly below, No if not.

Consider the worked cases shown below.
{"Structure": "O=c1ccc(=O)n(-c2nc(-c3ccc([N+](=O)[O-])cc3)cs2)[nH]1", "Class Label": "No"}
{"Structure": "Cn1cc(-c2csc(-c3cn(CCCN4CCOCC4)c4ccccc34)n2)c2cccnc21", "Class Label": "Yes"}
{"Structure": "O=C(CCCCCNC(=O)c1cc(=O)c(O)co1)Nc1ccccc1", "Class Label": "No"}
{"Structure": "CC1(C)OB(O)c2cc(-c3nc4ccc5[nH]ncc5c4c4c3CCCC4)ccc21", "Class Label": "Yes"}
{"Structure": "Cc1ccc2c(-n3nc(C#N)c(C#N)c3N)cc(=O)[nH]c2c1", "Class Label": "Yes"}
{"Structure": "Cn1cc(-c2csc(-c3c[nH]c4ccc(F)cc34)n2)c2ccnc(Cl)c21", "Class Label": "Yes"}

INPUT: Bench note: check whether COc1ccc(C(=O)N2c3ccccc3Sc3ccccc32)c(C(F)(F)F)c1 shows growth below 90%
OUTPUT: Yes

INPUT: Bench note: check whether CC1(C)CC[C@]2(C(=O)N[C@H](CO)Cc3ccccc3)CC[C@]3(C)C(=CC[C@@H]4[C@@]5(C)CCCNC(C)(C)[C@@H]5CC[C@]43C)[C@@H]2C1 shows growth below 90%
OUTPUT: No

INPUT: Bench note: check whether O=C(Nc1cnc(Nc2ccc(N3CCOCC3)nc2)nc1Oc1ccc(C(F)(F)F)cc1)c1ccncc1 shows growth below 90%
OUTPUT: Yes

INPUT: Bench note: check whether O=S(=O)(NCCNc1nccc(-c2c(-c3cccc(O)c3)nc3occn23)n1)c1ccc(Br)cc1 shows growth below 90%
OUTPUT: Yes

INPUT: Bench note: check whether Cc1ccc(-c2nc(SCc3nc4cc(Cl)c(Cl)cc4[nH]3)[nH]c(=O)c2C#N)cc1 shows growth below 90%
OUTPUT: No

INPUT: Bench note: check whether Cc1ccc(S(=O)(=O)Oc2ccc3sc4cccc(NCCN(C)C)c4c(=O)c3c2)cc1 shows growth below 90%
OUTPUT: Yes

INPUT: Bench note: check whether Nc1c(C(=O)Nc2cccc(Cl)c2)sc2nc3c(cc12)CCCC3 shows growth below 90%
OUTPUT: No

INPUT: Bench note: check whether CC(=O)/C(=C/c1ccc([N+](=O)[O-])cc1)C(=O)c1ccccc1 shows growth below 90%
OUTPUT: No

INPUT: Bench note: check whether COc1cccc(/C=C/C(=O)c2cc3c(N)c(C(=O)Nc4cccc5ccccc45)sc3nc2C)c1 shows growth below 90%
OUTPUT: Yes

INPUT: Bench note: check whether CCN1CCN(c2cc(C)nc(N(CCNc3ccnc4cc(Cl)ccc34)Cc3ccc4c(c3)OCO4)n2)CC1 shows growth below 90%
OUTPUT: Yes

INPUT: Bench note: check whether CN1CCN(Cc2ccc(NC(=O)c3cncc(C#Cc4cnc5ccc(Cl)nn45)c3)cc2C(F)(F)F)CC1 shows growth below 90%
OUTPUT: Yes

INPUT: Bench note: check whether Nc1nc(N)c(N=Nc2ccccc2)c(-c2ccccc2)n1 shows growth below 90%
OUTPUT: Yes

INPUT: Bench note: check whether CCCCNc1cc(-c2cn[nH]c2-c2cc(C)cc(OC)c2)nc(-c2cccnc2)n1 shows growth below 90%
OUTPUT: Yes

====

- System: DU-145 prostate
- Protocol Summary: NCI-60 one-dose screen, 48 h (100 = growth as untreated, 0 = no growth, -100 = all killed)
- Details: 10 µM unless noted
- Experimental: Cells are grown in 96 well plates and exposed to the test compound for 48 hours. Compounds are tested at a single concentration, which is 10^-5 M for most compounds. The reported endpoint is percent growth (GI% or GIPRCNT), where numbers from 0 - 100% represent growth inhibition, and numbers from -100% - 0 represent cell death. For example, a value of 40 represents 60% growth inhibition. A value of 0 means no net growth occurred over the course of the experiment. […]
Compounds without any hit were thinned out: in the full panel of roughly 83,000, 20% have a hit. Active and inactive are the calls of the source. The calls were made as follows: active = growth percent below 10; inactive = the rest.
Exercise: for every item that follows, state its recorded growth.

{"Compound": "COc1ccc(C(=O)Cn2c(C(=O)c3ccc(Cl)cc3)nc3ccccc32)cc1", "growth": "98.3% (inactive)"}
{"Compound": "CNC(C)[C@H]1CCC2C3CC=C4C(=O)[C@@H](NC(=O)C=C(C)C)CC[C@]4(C)C3CC[C@@]21C (stereo not given in full)", "growth": "52.9% (inactive)"}
{"Compound": "C=CC(=O)Nc1ccc(Oc2nccc(Nc3nnc(-c4ccc(C)cc4)s3)n2)cc1", "growth": "78.5% (inactive)"}
{"Compound": "O=C(/C=C/c1ccccc1)c1ccc(Nc2nc(Nc3ccc(F)cc3)nc(Nc3ccc(Cl)cc3)n2)cc1", "growth": "97.7% (inactive)"}

Could you now consider this next compound?
INPUT: Please supply the value of reported growth for the item CCOC(=O)c1[nH]c2c(c1C)-c1[nH]c(=O)c(S(=O)(=O)c3ccccc3)cc1SC2
OUTPUT: 15.4% [100 µM] (inactive)
